# RUN_DESCRIPTION: solvent given as SMILES
# EXPERIMENTAL_CONTEXT: in CO
EXPERIMENTAL_READOUT: emission maximum (nm)
One number for each entry, in nm.

Value sought for every listed compound: emission maximum.
1. CN1c2ccccc2C(O)(c2ccccc2)c2cc([N+](=O)[O-])ccc21 (stereo not given)
2. COC(=O)COc1ccc(/C=C/C2=[N+]3C(=C(c4ccc(N(C)C)cc4)c4c(C)cc(C)n4[B-]3(F)F)C(C)=C2)cc1
3. COc1ccc(-n2nc(C#N)c(N3CCCC3)n2)cc1
4. CSc1sc(C(=O)c2ccccc2)c2nn[nH]c(=O)c12
5. CCOC(=O)CCOc1ccc(C(c2c(C)[nH]c3ccccc23)c2c(C)[nH]c3ccccc23)cc1OC
6. C(/C=C/c1cc2c3c(c1)CCCN3CCC2)=C\c1ccncc1
7. CN1/C(=C/C=C(/C=C/c2sc3ccccc3[n+]2C)c2ccc(C(F)(F)F)cc2)Sc2ccccc21
8. C[n+]1ccc(/C=C/c2ccc([O-])cc2)cc1

Result block:
1. 544.7
2. 580
3. 416
4. 495
5. 350
6. 583
7. 676
8. 576

###

# RUN_DESCRIPTION: solvent given as SMILES
# EXPERIMENTAL_CONTEXT: in C1CCCCC1
Could you please report measured emission maximum for the items listed next?
Answers are plain numbers, in nm.

Below, 5 compounds whose answers are already recorded.
c1ccc(-c2nc(-c3ccccc3)n3ccccc23)cc1 ... 445
C[Si](C)(C)c1cccc2c(C#N)cccc12 ... 333
CC1=[N+]2C(=C(c3ccc(N(C)C)cc3)c3ccc(C)n3[B-]2(F)F)C=C1 ... 518
CN(C)CCNc1ccc([N+](=O)[O-])cc1[N+](=O)[O-] ... 368
COc1ccc2c3c(cccc13)C(=O)N(C)C2=O ... 404

Items follow; give emission maximum for each.
1. c1ccc(-c2c3c(cc4c2-c2ccccc2C4)-c2ccccc2C3)cc1
2. Cc1ccc(/C=C(\c2ccccc2)c2nc3ccccc3o2)cc1
3. CCCCN1c2ccccc2Sc2cc(/C=C/c3nc4nc5ccccc5nc4s3)ccc21
4. CNc1ccc2c(c1)C(=O)c1ccccc1-2

Result block:
1: 364; 2: 380; 3: 558; 4: 587

###

# RUN_DESCRIPTION: solvent given as SMILES
# EXPERIMENTAL_CONTEXT: in CN(C)C=O
Hi there, I'd appreciate the recorded emission maximum for every entry that follows.
Give bare numbers, in nm.

Could you report emission maximum for every entry in the following list?
1. Cc1ccc2[nH]c(-c3ccc(-c4ccc(-c5ccc(-c6nc7cc(C)ccc7[nH]6)cc5)c(F)c4)cc3)nc2c1
2. COc1cc2c(cc1/C=C(\C#N)c1nc3ccccc3s1)c1ccccc1n2C
3. CCn1c2ccccc2c2cc(-c3cc(-c4ccc5c(c4)c4ccccc4n5CC)nc(SC)n3)ccc21
4. O=C1/C(=C\c2ccc3oc4ccccc4c3c2)S(=O)(=O)c2ccccc21
5. Cc1ccc(C(=O)/C=C/c2ccc(N(C)C)cc2)cc1
6. CCN(CC)c1ccc2cc3ccc(=[N+](CC)CC)cc-3oc2c1
7. COc1cc(N(c2ccccc2)c2ccccc2)ccc1C=C(C#N)C#N
8. COc1ccc(-c2sc3c(-c4ccc(OC)cc4)c4n(c3c2-c2ccc(OC)cc2)[B-](F)(F)[N+]2=Cc3c(-c5ccc(OC)cc5)c5sc(-c6ccc(OC)cc6)c(-c6ccc(OC)cc6)c5n3[B-](F)(F)[N+]2=C4)cc1

Result block:
423
508
421
445
528
532
558
654

Query block: Fill in emission maximum for record CC1(C)Cc2c(c3ccccc3c3nc4ccccc4nc23)O1
Result block: 521.92

Data credit: the Deep4Chem optical property database
